Reference for the values: patent US6930131B2

Documented IC50 across a set of compounds
- System: Hepatocytes Isolated and Cultured from Obese Zucker (fa/fa) Rats
- assay: Inhibition of glucose output from hepatocytes isolated and cultured from obese Zucker (fa/fa) rats
- Assay type: cell-based, rat
- condition notes: inhibition of glucose output vs glucagon stimulated cultured hepatocytes
measured parameter: IC50 (µM)

# compound, measured parameter, result
records = [
    ("O=S(=O)(Nc1cccc(CCOCc2ccc(-c3ccc(F)cc3)cc2Cl)c1)C(F)(F)F [Example 22]", "IC50", 2.2),
    ("O=S(=O)(Nc1cccc(CCOCc2ccc(-c3ccc(Cl)cc3)cc2F)c1)C(F)(F)F [Example 11]", "IC50", 10),
    ("O=S(=O)(Nc1cccc(CCOCc2ccc(-c3ccc(Cl)cc3)cc2Cl)c1)C(F)(F)F [Example 23]", "IC50", 1.7),
    ("O=C(O)c1ncccc1S [Na-Mercaptopicolinic acid, reference compound]", "IC50", 45),
    ("COc1cc(-c2ccc(Cl)cc2)ccc1COCCc1cccc(NS(=O)(=O)C(F)(F)F)c1 [Example 26]", "IC50", 2.3),
]
